Molecular target: human NKp30 (human) (UniProt O14931)
Sequence (O14931 19-135 limits assumed): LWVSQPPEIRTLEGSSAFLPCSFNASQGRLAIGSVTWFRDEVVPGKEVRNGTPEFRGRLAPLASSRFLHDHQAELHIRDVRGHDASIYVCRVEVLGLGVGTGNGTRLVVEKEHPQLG
Test: BLI, ratio to ΔB7-H6_wt

{"binder": "ΔB7-H6_S2#3-SEED-PGLALA (bispecific antibody, part only; not given: SEED Fc chains and hu225 Fab, part only) chain, part: DLKVEMMAGGTQITPLNDNVTIFCNIFYSQPLNITTMGITWFWKSLTFDKEVKVFEFWGDHQEAFRPGAIVSPWRLKSGDASLRLPGIQLEEAGEYRCEVVVTPLKAQGTVQLEVVASPAS", "x-fold Koff improvement, fold": 1.6}
{"binder": "ΔB7-H6_S3#25-SEED-PGLALA (bispecific antibody, part only; not given: SEED Fc chains and hu225 Fab, part only) chain, part: DLKVEMMAGGTQITPLNDNVTIFCNIFYSQPLNITWMGITWFWKSLTFDKEVKVFEFYGDHQEAFRPGAIVSPWRLKSGDASLRLPGIQLEEAGEYRCEVVVTPYKAQGTVQLEVVASPAS", "x-fold Koff improvement, fold": 3.5}
{"binder": "ΔB7-H6_S3#9-SEED-PGLALA (bispecific antibody, part only; not given: SEED Fc chains and hu225 EGFR Fab, part only) chain, part: DLKVEMMAGGTQITPLNDNVTIFCNIFYSQPLNITHMGITWFWKSLTFDKEVKVFEFFGDHQEAFRPGAIVSPWRLKSGDASLRLPGIQLEEAGEYRCEVVVTPYKAQGTVQLEVVASPAS", "x-fold Koff improvement, fold": 3}

Reference source: patent US20230287082A1
